# SUBJECT OF TEST: HCV NS3 protease (full length NS34a) (Hepatitis C virus genotype 1b)
# Construct: The protease activity of the full length NS34a was measured using a FRET-based assay; made in house
# Sequence (P26663 1658-1711): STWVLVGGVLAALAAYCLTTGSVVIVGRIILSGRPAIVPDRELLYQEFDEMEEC
# Sequence (P26663 1027-1657): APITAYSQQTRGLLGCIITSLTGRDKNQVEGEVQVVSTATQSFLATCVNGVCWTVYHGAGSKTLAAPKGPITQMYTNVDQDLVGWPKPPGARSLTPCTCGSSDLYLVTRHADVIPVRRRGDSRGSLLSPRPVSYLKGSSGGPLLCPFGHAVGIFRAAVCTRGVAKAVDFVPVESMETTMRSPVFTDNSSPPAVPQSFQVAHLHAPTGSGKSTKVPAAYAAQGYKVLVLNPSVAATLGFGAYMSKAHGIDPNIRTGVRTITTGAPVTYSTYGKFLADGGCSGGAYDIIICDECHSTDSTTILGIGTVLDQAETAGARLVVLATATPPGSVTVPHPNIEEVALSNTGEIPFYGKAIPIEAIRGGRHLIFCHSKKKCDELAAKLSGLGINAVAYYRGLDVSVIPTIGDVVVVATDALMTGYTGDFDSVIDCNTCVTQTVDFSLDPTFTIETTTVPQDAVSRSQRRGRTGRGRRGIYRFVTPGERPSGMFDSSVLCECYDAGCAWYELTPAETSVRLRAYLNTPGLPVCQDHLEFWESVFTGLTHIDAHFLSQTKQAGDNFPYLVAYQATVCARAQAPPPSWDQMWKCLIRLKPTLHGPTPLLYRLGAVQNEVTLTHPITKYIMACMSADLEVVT
# PROCEDURE DETAILS: HCV NS3 protease assay (FRET, full length NS34a)
# Type: biochemical
# CONDITION NOTES: protease activity of full length NS34a, FRET peptide substrate; read-out: Activity IC50
log10(IC50) reference
Note the log scale: values are log10 of IC50 expressed in nM.

Reference set (4 entries):
{"STRUCTURE SMILES": "N[C@@H](c1ccc(Cl)c(Oc2ccccc2)c1F)C1CCOCC1", "log10(IC50)": 3.81}
{"STRUCTURE SMILES": "N[C@@H](CC1CCNCC1)c1ccc(F)c(Oc2ccccc2)c1F", "log10(IC50)": 2.90}
{"STRUCTURE SMILES": "CC[C@@H](N)c1ccc(Cl)c(Oc2ccc(-c3cnco3)c(C)c2)c1F", "log10(IC50)": 3.20}
{"STRUCTURE SMILES": "CC[C@@H](N[C@@H](C)CC(N)=O)c1ccc(Cl)c(Oc2ccc(C#N)c(F)c2)c1F", "log10(IC50)": 2.11}

Could you now consider this next molecule?
Query block: Given the entry CCNC(=O)O[C@@H](C)c1cccc(Oc2c(Cl)ccc([C@@H](N)CC)c2F)c1 , report its measured log10(IC50).
Result block: 3.11
